IC50 values for 3-phosphoinositide-dependent protein kinase 1 (Homo sapiens), compiled from several publications.

Below, each entry is followed by its recorded IC50 result.
>  <Structure String>
CC(C)n1nc(-c2cccc(C(=O)NC3=NCCS3)c2)c2c(N)ncnc21

>  <Readout Name>
IC50

>  <Measurement>
> 10 µM

$$$$
>  <Structure String>
COc1ccc2oc(=O)c(C(=O)c3ccccc3)cc2c1

>  <Readout Name>
IC50

>  <Measurement>
5.97 µM

$$$$

Inquiry: Fill in the recorded IC50 for this molecule, with 3-phosphoinositide-dependent protein kinase 1 (Homo sapiens) as test system: O=C1CCCc2cc(-c3ccnc(Nc4ccccc4)n3)ccc2N1
Reply text: > 100 µM
